Test system: SEM cells
assayProcedure: cell viability relative to DMSO control; higher = less cytotoxic
studyConditions: RPMI 5 mM glucose + 10% dialyzed FBS; 48 h; 0.000781 µM
observable: cell viability (%)
The figure you give is taken to be in %; do not add the unit.

IN: Entry "COC(=O)N[C@H](C(=O)N[C@@H](Cc1ccccc1)[C@@H](O)CN(Cc1ccc(-c2ccccn2)cc1)NC(=O)[C@@H](NC(=O)OC)C(C)(C)C)C(C)(C)C" : reported cell viability = ?
OUT: 101

IN: // same read-out, input: Cn1c(=O)c2c(ncn2CC(O)CO)n(C)c1=O (stereo not drawn)
OUT: 93.1

IN: // same read-out, input: "Cc1cnc(Nc2ccc(OCCN3CCCC3)cc2)nc1Nc1cccc([S+](=O)([O-])NC(C)(C)C)c1"
OUT: 83.5

IN: // same read-out, input: CCOP(=O)(OCC)C(C)NC(=O)N(CCCl)N=O (stereo not drawn)
OUT: 108

IN: // same read-out, input: "CC1=C(/C=C/C(C)=C/C=C/C(C)=C/C(=O)Nc2ccc(O)cc2)C(C)(C)CCC1"
OUT: 76.8

IN: // same read-out, input: "COc1cc2nc(-c3ccc(N4CCN(C)CC4)cc3)nc(NCCN3CCOCC3)c2cc1OC"
OUT: 114

IN: // same read-out, input: "NC12CC3CC(CC(C3)C1)C2"
OUT: 33.7

IN: // same read-out, input: C[Se]CCC(N)C(=O)O (stereo not drawn)
OUT: 51.5
